Target: rat angiotensin 2 type 1 receptor (rat) (UniProt P25095)
Sequence (P25095 whole entry): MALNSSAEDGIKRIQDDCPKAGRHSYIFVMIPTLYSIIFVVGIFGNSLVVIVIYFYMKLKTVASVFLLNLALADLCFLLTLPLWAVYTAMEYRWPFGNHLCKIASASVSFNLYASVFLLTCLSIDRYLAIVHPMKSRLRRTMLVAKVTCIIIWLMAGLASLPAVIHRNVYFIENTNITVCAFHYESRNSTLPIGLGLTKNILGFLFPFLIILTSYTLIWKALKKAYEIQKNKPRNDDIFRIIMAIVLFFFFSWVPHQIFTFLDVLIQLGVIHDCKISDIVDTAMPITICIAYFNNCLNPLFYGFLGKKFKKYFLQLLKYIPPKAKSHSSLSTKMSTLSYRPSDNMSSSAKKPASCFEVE
Assay: cell-based or functional assay
Where no end group is shown, it is not given here.

binder	IP One EC50
RVYHHPA (N-terminal Sar; C-terminal acid) [SEQ ID NO: 22 (Sar-Arg-Val-Tyr-His-His-Pro-Ala-OH)]	250 nM
DRVYYHP-NH2 [SEQ ID NO: 57 (Asp-Arg-Val-Tyr-Tyr-His-Pro-NH2)]	330 nM
RVYYHPI (N-terminal Sar; C-terminal acid) [SEQ ID NO: 14 (Sar-Arg-Val-Tyr-Tyr-His-Pro-Ile-OH)]	32 nM
RVYYHP (N-terminal Sar; C-terminal D-Phe) [SEQ ID NO: 28 (Sar-Arg-Val-Tyr-Tyr-His-Pro-D-Phe-OH)]	64 nM
RVYEHPI (N-terminal Sar; C-terminal acid) [SEQ ID NO: 16 (Sar-Arg-Val-Tyr-Glu-His-Pro-Ile-OH)]	92 nM
ARVYIHPA (N-methyl residue; C-terminal acid) [SEQ ID NO: 34 (NMAla-Arg-Val-Tyr-Ile-His-Pro-Ala-OH)]	> 10000 nM
ERVYYHP (N-methyl; C-terminal amide) [SEQ ID NO: 62 (N-Me-Glu-Arg-Val-Tyr-Tyr-His-Pro-NH2)]	> 10000 nM
RVYIHPRVYIHPRVYIHP (cyclic) [SEQ ID NO: 36 (Cyclo(Arg-Val-Tyr-Ile-His-Pro-Arg-Val-Tyr-Ile-His-Pro-Arg-Val-Tyr-Ile-His-Pro))]	100 nM

Attribution: patent US20240025949A1
